- Test system: MDR1
- methodSummary: MDR1-MDCKII bidirectional permeability assay
- Type: in vitro ADME, Canine
- conditionContext: dog, MDCK-MDR1, pH 7.4; apical-to-basolateral; read-out: A-B Percent Recovery
propertyName: recovery at 60 min (%)
Numbers only, in %.

Worked examples, 2 molecules total:
# molecule, assayTarget, propertyName, assayValue
rows = [
    ("COCc1cc(CCN)c(OC)cc1Br", "MDR1", "recovery at 60 min", 78),
    ("COCc1cc(CCN)c(OC)cc1CC(C)C", "MDR1", "recovery at 60 min", 76),
]

Quick one: recovery at 60 min of COCCc1cc(CCN)c(OC)cc1Br [Compound 2CB-5ME, reference compound] ?
75

All figures here come from patent US12692221B2.
